system.tested: UniProt:P0DTD1
Lab note: cut-off is 2000 nM. Strictly less in IC50 is TRUE. Exactly 2000 nM or more is FALSE.

compound | classification
NC(=O)C12COC(CNC(=O)CC3(C(=O)Nc4cncc5ccccc45)CCOc4ccc(Cl)cc43)(C1)C2 (stereo not drawn) | FALSE
Cc1ccc(Nc2cc(Cl)cc(CC(=O)Nc3cncc4ccccc34)c2)cc1I | FALSE
C=CC(=O)NCC(=O)N(CCN1CCOCC1)Cc1sccc1Br | FALSE
Cc1csc2ncc(C(=O)Nc3cccc4ncccc34)c(=O)n12 | FALSE
CSc1ncc(C#N)c(Nc2cc(Cl)cc(CC(=O)Nc3cncc4ccccc34)c2)n1 | TRUE
O=c1[nH]c2ccc(NC(=S)Nc3ccccc3Cl)cc2[nH]1 | FALSE
Cc1ccncc1NC(=O)Cc1cc(Cl)cc(NC2(C)CCC(F)(F)CC2)c1 | FALSE
CC(C)(C)c1ccc(N(C(=O)c2cocn2)C(C(=O)NCCc2cccc(F)c2)c2ccc[nH]c2=O)cc1 (stereo not drawn) | FALSE
O=C(Cc1cc(Cl)cc(N2CCN(c3ccccc3O)CC2)c1)Nc1cncc2ccccc12 | TRUE
O=C(NCCc1cccc(F)c1)C(c1cccnc1)N(C(=O)c1cocn1)C1COc2ccccc2C1 (stereo not drawn) | FALSE
O=S(=O)(Nc1ccccc1SCc1cccc(Cl)c1F)c1cc(Cl)sc1Cl | FALSE
CC(C)(C#N)CS(=O)(=O)N1Cc2ccc(Cl)cc2C2(CCN(c3cncc4ccccc34)C2=O)C1 (stereo not drawn) | TRUE
N#CC1(CS(=O)(=O)N2Cc3ccc(Cl)cc3C(C(=O)Nc3nncn3C3CC3)C2)CC1 (stereo not drawn) | FALSE
O=C(Cc1cc(Cl)cc(NCc2ccc(F)c(Cl)c2)c1)Nc1cncc2ccccc12 | FALSE
CN(C)C(=O)CNCC1(C(=O)Nc2cncc3ccccc23)CCOc2ccc(Cl)cc21 (stereo not drawn) | TRUE
O=C(Nc1ccc(N(C(=O)c2cocn2)C(C(=O)NCCc2cccc(F)c2)c2cccnc2)cc1)NC1CC1 (stereo not drawn) | FALSE
Cc1cc(C(=O)N2CCC(C3CCNC3)CC2)cc(C)c1OC(F)F (stereo not drawn) | FALSE
CC(C)c1nc(CN(C)c2cc(Cl)cc(CC(=O)Nc3cncc4ccccc34)c2)cs1 | FALSE
CC(CCC(OC1OC(COC2OC(CO)C(O)C(O)C2O)C(O)C(O)C1O)C(C)(C)O)C1CCC2(C)C3CC=C4C(CCC(O)C4(C)C)C3(C)C(O)CC12C (stereo not drawn) | FALSE
N#CC1CN(S(=O)(=O)NCc2ccc(Cl)cc2CC(=O)Nc2cncc3ccccc23)C1 | TRUE
O=C(NC1N=Nc2ccccc21)C1CCOc2ccc(Cl)cc21 (stereo not drawn) | FALSE
N#Cc1nccc(Cl)n1 | FALSE
CCc1ccc([N+](=O)[O-])cc1Nc1cc(Cl)cc(CC(=O)Nc2cncc3ccccc23)c1 | TRUE
O=C(Nc1cncc2ccccc12)C1(CO)CCOc2ccc(Cl)cc21 (stereo not drawn) | TRUE
O=C1CC(Oc2cc(Cl)cc(CC(=O)Nn3cnc4ccccc4c3=O)c2)N1 (stereo not drawn) | FALSE
O=C(Cc1cc(Cl)cc(NCc2cccc(Br)c2)c1)Nc1cncc2ccccc12 | TRUE
CN(C)C(=O)C(CNC(=O)[C@@H](c1ccccc1)N1Cc2ccccc2C1=O)c1ccccc1 (stereo in doubt) | FALSE
Cn1cnc(C(=O)N(c2ccc(C(C)(C)C)cc2)C(C(=O)NCCc2cccc(F)c2)c2cccnc2)cc1=O (stereo not drawn) | FALSE
CN(C1CC1)S(=O)(=O)N1Cc2ccc(Cl)cc2C(C(=O)Nc2cncc3ccccc23)C1 (stereo not drawn) | TRUE
CCCCn1nnnc1CNC1CCc2nc(C(C)C)nn2C1 (stereo not drawn) | FALSE
C=CC(=O)N(c1ccc(C(C)(C)C)cc1)C(C(=O)NCCSC)c1cccnc1 (stereo not drawn) | FALSE
CCC1(C(=O)Nc2cncc3ccc(S(C)(=O)=O)cc23)CNC(=O)c2ccc(Cl)cc21 (stereo not drawn) | TRUE
O=C(CC1(C(=O)Nc2cncc3ccccc23)CCOc2ccc(Cl)cc21)N1CCCCC1c1ccn[nH]1 (stereo not drawn) | TRUE
CC(C)(C)c1ccc(N(C(=O)c2cc(=O)n3ncnc3[nH]2)C(C(=O)NCCc2cccc(F)c2)c2cccnc2)cc1 (stereo not drawn) | FALSE
O=C(Nc1ccc(F)cc1)[C@@H]1CN(C(=O)CCl)CCN1S(=O)(=O)c1ccsc1 (stereo in doubt) | TRUE
CCC(=O)Nc1ccc(N(Cc2ccccc2)C(=O)Nn2nnc3ccccc32)cc1 | FALSE
O=C(Cc1cc(Cl)cc(Nc2cc(Cl)c(O)c(Cl)c2)c1)Nc1cncc2ccccc12 | FALSE
O=C(Cc1ccc(Cl)cc1)Nc1cncc2ccccc12 | FALSE
